Entries and their pEC50
Test system: HeLa cells
Test: Light/dark cytotoxicity study (MTT) in HeLa cells
Type: cell-based
Details: 0 J/cm^2 light (no light), read-out: EC50 (dark toxicity)
Kindly note that pEC50 refers to -log10 of the concentration in mol/L and answer with the value alone.

| COMPOUND_STRUCTURE_STRING | pEC50 |
| --- | --- |
| F[B-]1(F)n2c(-c3ccccc3)cc(-c3ccccc3)c2N=C2C(c3ccccc3)=CC(c3ccccc3)=[N+]21 | 4.64 |

Now consider a different compound.
The compound identified as COc1ccc(C2=[N+]3C(=Nc4c(-c5ccccc5)cc(-c5ccc(OC)cc5)n4[B-]3(F)F)C(c3ccccc3)=C2)cc1 registered its pEC50 at 4.21

----------
Tested on: HeLa cells
Assay: Light/dark cytotoxicity study (MTT) in HeLa cells
Type: cell-based
Conditions: Homo sapiens, light or radiation study, 0.25 h, 8 J/cm^2 light (15 mins from a 500 W light source), read-out: EC50
MEASURED_METRIC: EC50 (µM)
The answer is to be given in µM; state only the numeric part.

Hey, HeLa cells data for CC1=C(CCC(=O)O)c2cc3[nH]c(cc4nc(cc5[nH]c(cc1n2)c(C)c5C(C)O)C(C)=C4C(C)O)c(C)c3CCC(=O)O (stereo not shown) [haematoporphyrin, reference compound] : EC50 came out at 15

----------
Assay: Fluorescence emission and fluorescence quantum yield
Assay type: physicochemical
Settings: CHCl3, room temperature; excitation at 635 nm
MEASURED_METRIC: λ em (fluorescence band) (nm)
API: value field is a number in nm; no unit string.

Recorded λ em (fluorescence band), per entry:
| COMPOUND_STRUCTURE_STRING | λ em (fluorescence band) / nm |
| --- | --- |
| F[B-]1(F)n2c(c(-c3ccccc3)c(Br)c2-c2ccccc2)N=C2C(c3ccccc3)=C(Br)C(c3ccccc3)=[N+]21 | 673 |
| COc1ccc(C2=[N+]3C(=Nc4c(-c5ccccc5)c(Br)c(-c5ccc(OC)cc5)n4[B-]3(F)F)C(c3ccccc3)=C2Br)cc1 | 714 |
| F[B-]1(F)n2c(-c3ccccc3)cc(-c3ccc(Br)cc3)c2N=C2C(c3ccc(Br)cc3)=CC(c3ccccc3)=[N+]21 | 680 |
| COc1ccc(C2=[N+]3C(=Nc4c(-c5ccccc5)cc(-c5ccc(OC)cc5)n4[B-]3(F)F)C(c3ccccc3)=C2)cc1 | 715 |

Next compound, λ em (fluorescence band) to be filled in.
The measured λ em (fluorescence band) associated with F[B-]1(F)n2c(-c3ccccc3)cc(-c3ccccc3)c2N=C2C(c3ccccc3)=CC(c3ccccc3)=[N+]21 reads 672
